assay_target: human Gastric Inhibitory Peptide Receptor (GIPR) (human) (UniProt P48546)
Sequence (P48546 22-466 limits assumed): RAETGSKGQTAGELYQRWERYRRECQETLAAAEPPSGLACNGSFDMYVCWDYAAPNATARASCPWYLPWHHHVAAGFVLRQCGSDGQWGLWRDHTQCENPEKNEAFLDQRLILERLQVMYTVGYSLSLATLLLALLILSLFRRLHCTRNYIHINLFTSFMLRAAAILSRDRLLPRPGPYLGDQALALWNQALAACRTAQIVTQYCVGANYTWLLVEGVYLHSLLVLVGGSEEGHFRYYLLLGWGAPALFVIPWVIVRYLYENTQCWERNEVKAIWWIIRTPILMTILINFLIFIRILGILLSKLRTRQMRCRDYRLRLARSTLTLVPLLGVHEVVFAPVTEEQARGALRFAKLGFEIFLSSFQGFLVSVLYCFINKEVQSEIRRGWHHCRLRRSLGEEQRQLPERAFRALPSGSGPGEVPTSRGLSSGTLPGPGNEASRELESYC
test_description: FACS competition vs biotinylated GIP-057 on CHO-K1-hGIPR cells; category A: pIC50 >8.0
*1 amine or outer side, *2 acyl side, *3 side chain or, on linkers, in order; H or OH if unused. Bridges are numbered along the chain shown (N, C = ends). [ ]: non-standard residue; d: D form. Trp(5-Cl) = N[C@@H](Cc1c[nH]c2ccc(Cl)cc12)C(=O)O; Pyridine(2,6-diCH2) = c1cc(C[*:1])nc(C[*:2])c1; Hyp = O=C(O)[C@@H]1C[C@@H](O)CN1; Thz = O=C(O)[C@@H]1CSCN1; Thp = NC1(C(=O)O)CCOCC1
Entries and their pIC50

Below, each entry is followed by its recorded pIC50 result.
Ac-DW[Trp(5-Cl)][Thz]E[dL]C[Thp]LIC-NH2 (linker 7-11 via Pyridine(2,6-diCH2)) [Ac-Asp-Trp-5Clw-Eaz-Glu-leu-[Cys(2Lut)-Thp-Leu-Ile-Cys]-NH2] ... > 8 pic50
Ac-DW[Trp(5-Cl)][Hyp]V[dL]C[Thp]LIC-NH2 (linker 7-11 via Pyridine(2,6-diCH2)) [Ac-Asp-Trp-5Clw-Hyp-Val-leu-[Cys(2Lut)-Thp-Leu-Ile-Cys]-NH2] ... > 8 pic50

Entry under review: Ac-DW[Trp(5-Cl)][Hyp]E[dL]C[Thp]RIC-NH2 (linker 7-11 via Pyridine(2,6-diCH2); SMILES CC[C@H](C)[C@@H]1NC(=O)[C@H](CCCNC(=N)N)NC(=O)C2(CCOCC2)NC(=O)[C@@H](NC(=O)[C@@H](CC(C)C)NC(=O)[C@H](CCC(=O)O)NC(=O)[C@@H]2C[C@@H](O)CN2C(=O)[C@H](Cc2c[nH]c3ccc(Cl)cc23)NC(=O)[C@H](Cc2c[nH]c3ccccc23)NC(=O)[C@H](CC(=O)O)NC(C)=O)CSCc2cccc(n2)CSC[C@@H](C(N)=O)NC1=O) [Ac-Asp-Trp-5Clw-Hyp-Glu-leu-[Cys(2Lut)-Thp-Arg-Ile-Cys]-NH2] . Reported pIC50?
> 8 pic50

Cited source: patent US20250296971A1
